Source: patent US20230390362A1

target: human GCG receptor (human, UniProt P47871 26-477); assay: cell-based or functional assay
Sequence (P47871 26-477): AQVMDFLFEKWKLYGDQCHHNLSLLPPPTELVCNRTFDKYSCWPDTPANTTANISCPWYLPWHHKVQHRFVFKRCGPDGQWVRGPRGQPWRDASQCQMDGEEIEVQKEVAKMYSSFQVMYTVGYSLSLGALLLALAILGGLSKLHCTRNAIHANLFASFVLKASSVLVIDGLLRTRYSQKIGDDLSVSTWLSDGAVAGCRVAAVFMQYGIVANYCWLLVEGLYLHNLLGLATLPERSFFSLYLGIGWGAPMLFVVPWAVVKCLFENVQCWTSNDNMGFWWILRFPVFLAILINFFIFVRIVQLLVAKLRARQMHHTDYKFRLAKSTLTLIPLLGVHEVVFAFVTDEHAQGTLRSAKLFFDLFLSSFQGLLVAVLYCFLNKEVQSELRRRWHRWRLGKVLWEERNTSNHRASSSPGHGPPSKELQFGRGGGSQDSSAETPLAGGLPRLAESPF
Positions of bridges follow the written chain, without caps; N, C: chain ends. Non-standard residues stand in square brackets, D forms with d. No end group written: not given here. *: point of attachment. Acetyl(2-(4-imidazolyl)) = O=C(Cc1c[nH]cn1)*; Aib = CC(C)(N)C(=O)O
Could you please mark 1.0 for values of In vitro activity relative to native peptide (%), vs. Glucagon (cAMP EC50) below 0.4% and 0.0 for values at or above it?

Binder	Label value
HGQGTFTSDCSKYMDGQAAQDFVAWLLAGGPSSGAPPPS [trigonal agonist of SEQ ID NO: 45]	1.0
{Acetyl(2-(4-imidazolyl))}-[Aib]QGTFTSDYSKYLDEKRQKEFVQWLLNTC (bridge 15-19) [trigonal agonist of SEQ ID NO: 81]	1.0
H[Aib]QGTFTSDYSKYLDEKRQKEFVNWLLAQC (bridge 16-20) [trigonal agonist of SEQ ID NO: 56]	0.0
{Acetyl(2-(4-imidazolyl))}-GEGTFISDLSKYMDEQAVQLFVEWLMAGGPSSGAPPPSHG [trigonal agonist of SEQ ID NO: 12]	1.0
HGQGTFTSDCSKYLDGQRAQEFVAWLLAGGPSSGAPPPS [trigonal agonist of SEQ ID NO: 47]	1.0

# check: In vitro activity relative to native peptide (%), vs. Glucagon (cAMP EC50) < 0.4% for H[Aib]QGTFTSDVSSYLDGQAAKEFIAWLVKGC [trigonal agonist of SEQ ID NO: 1]
1.0

Okay, and Y[Aib]QGTFTSDYSKALDEKAAKEFVNWLLDHHPSSGQPPPSC (bridge 16-20) [trigonal agonist of SEQ ID NO: 98] ?
0.0

Queued: Y[Aib]QGTFTSDYSKYLDEKRAKEFVQWLLDHCPSSGQPPPS (bridge 16-20) [trigonal agonist of SEQ ID NO: 96]
0.0
